Ref: the supplement of paper PMC9262897

- Test system: E. coli TESEC Mtb Alr
- Assay Explanation: growth (OD600 after 10 h); higher = more growth (less inhibition)
- Condition Details: arabinose 10000000 nM; compound 0.1 mM; raw OD600 reference: median of DMSO wells 0.146, cell-free background 0.041
Where a name gives a salt, the structure may show the parent alone.
Assign growth to each entry below.
Give bare numbers.

Compound | growth
N[C@@H](Cc1ccc(O)c(O)c1)C(=O)O | 0.138
C=C1C(=O)O[C@H]2[C@H]1CC/C(C)=C/CC[C@@]1(C)O[C@@H]21 [Parthenolide] | 0.157

Would you be so kind as to report growth for each listed record?
1. CCN1CCCC(OC(=O)C(c2ccccc2)c2ccccc2)C1 (stereo not given) [Piperidolate hydrochloride]
2. CC12CC3CC(C)(C1)CC(N)(C3)C2 [Memantine Hydrochloride]
3. Cc1[nH]cnc1CN1CCc2c(c3ccccc3n2C)C1=O [Alosetron hydrochloride]

// result
0.136
0.175
0.15
